- Procedure Details: Observed mean residence time infinity in BALB/c mouse at 5 mg/kg, iv measured upto 24 hrs by LC-MS/MS analysis
- Assay type: ADME, organism-based
- Condition Label: in vivo
The entries below are paired with their reported MRT inf.
Number only, in h; omit the unit.

(Q) // lookup MRT inf for CCCSc1nc2c(c(=O)[nH]1)[C@@H](c1ccc(OC)cc1)CC(=O)N2
(A) 7.8

(Q) Tell me the measured MRT inf of CCCSc1nc2c(c(=O)[nH]1)[C@@H](c1ccc(OC)cc1[N+](=O)[O-])CC(=O)N2 , please.
(A) 16.4

* * *

- Procedure Details: Metabolic stability in human liver microsomes assessed as substrate remaining at 2 uM preincubated for 60 mins followed by NADPH addition and measured upto 60 mins by LC-MS analysis
- Format: ADME, Microsome
- Condition Label: time < 120 min, read-out: Stability
Assay Metric: remaining at 1 h, 2 µM (%)
Could you give me the number in %? Just the number is fine.

Some solved cases for reference:
# Molecule, remaining at 1 h, 2 µM (%)
data = [
    ("CCCSc1nc2c(c(=O)[nH]1)C(c1ccc(OC)cc1)CC(=O)N2 (racemic)", 83.4),
    ("CCCSc1nc2c(c(=O)[nH]1)C(c1ccc(OC)cc1[N+](=O)[O-])CC(=O)N2 (racemic)", 73.7),
    ("CCCSc1nc2c(c(=O)[nH]1)[C@@H](c1ccc(OC)cc1[N+](=O)[O-])CC(=O)N2", 83.3),
]

Now look at this one.
(Q) Record request: remaining at 1 h, 2 µM value, item CCCSc1nc2c(c(=O)[nH]1)[C@@H](c1ccc(OC)cc1)CC(=O)N2
(A) 69.8

* * *

- Procedure Details: Cytotoxicity against african green monkey Vero cells incubated for 48 hrs by CCK8 assay
- Assay type: toxicity, cell-based, Chlorocebus sabaeus
Assay Metric: IC50 at 48 h (µg/mL)
Give a bare numeral; the unit µg/mL is implied.

As a guide, the following entries are already answered.
# Compound, Assay Metric, Unit Annotation, Numeric Result
data = [
    ("CCCSc1nc2c(c(=O)[nH]1)C(c1ccc(OCC(C)C)cc1)CC(=O)N2 (stereo not given)", "IC50 at 48 h", "µg/mL", 41.5),
    ("CCCSc1nc2c(c(=O)n1C)C(c1ccc(OC)cc1)CC(=O)N2C (stereo not given)", "IC50 at 48 h", "µg/mL", 46.5),
]

(Q) Requested read-out: IC50 at 48 h. Entry: CCCSc1nc2c(c(=O)[nH]1)C(c1ccccc1)CC(=O)N2 (stereo not given)
(A) 31.9

* * *

- Procedure Details: Observed clearance in BALB/c mouse at 5 mg/kg, iv measured upto 24 hrs by LC-MS/MS analysis
- Type: ADME, organism-based
- Condition Label: in vivo
The molecules listed here are annotated with their clearance.
Kindly provide the numeric value in mL/min/kg only, without the unit symbol.

(Q) # lookup: clearance of CCCSc1nc2c(c(=O)[nH]1)[C@@H](c1ccc(OC)cc1)CC(=O)N2
(A) 0.673

(Q) I am curious: what clearance value has been reported for CCCSc1nc2c(c(=O)[nH]1)[C@@H](c1ccc(OC)cc1[N+](=O)[O-])CC(=O)N2 ?
(A) 0.5

* * *

- Procedure Details: AUCinfinity in BALB/c mouse at 30 mg/kg, po measured upto 24 hrs by LC-MS/MS analysis
- Format: ADME, organism-based
- Condition Label: in vivo
Assay Metric: AUC(0-inf)
Put your answer as a value accompanied by its unit after it.

# Smiles Representation, AUC(0-inf)
records = [
    ("CCCSc1nc2c(c(=O)[nH]1)[C@@H](c1ccc(OC)cc1)CC(=O)N2", "424 µg·h/mL"),
]

(Q) State the recorded AUC(0-inf) for this entry: CCCSc1nc2c(c(=O)[nH]1)[C@@H](c1ccc(OC)cc1[N+](=O)[O-])CC(=O)N2
(A) 669 µg·h/mL

* * *

Entries and their C0 at 24 h values follow.
- Procedure Details: Initial plasma concentration in BALB/c mouse at 5 mg/kg, iv measured upto 24 hrs by LC-MS/MS analysis
- Type: ADME, organism-based
Return type: number; implicit unit ng/mL.

# Smiles Representation, C0 at 24 h / ng/mL
data = [
    ("CCCSc1nc2c(c(=O)[nH]1)[C@@H](c1ccc(OC)cc1)CC(=O)N2", 45400),
]

Moving on to another compound below.
(Q) Which measured C0 at 24 h value corresponds to CCCSc1nc2c(c(=O)[nH]1)[C@@H](c1ccc(OC)cc1[N+](=O)[O-])CC(=O)N2 ?
(A) 32300

* * *

- Procedure Details: Cmax in BALB/c mouse at 30 mg/kg, po measured upto 24 hrs by LC-MS/MS analysis
- Assay type: ADME, organism-based
- Condition Label: in vivo
Overview of reported Cmax across a group of molecules:
Supply the numeric figure in ng/mL, leaving out any unit text.

# Smiles Representation, Cmax / ng/mL
rows = [
    ("CCCSc1nc2c(c(=O)[nH]1)[C@@H](c1ccc(OC)cc1[N+](=O)[O-])CC(=O)N2", 54000),
]

Consider the record given below.
(Q) Recorded Cmax for CCCSc1nc2c(c(=O)[nH]1)[C@@H](c1ccc(OC)cc1)CC(=O)N2 , please?
(A) 43300

* * *

// microsomal CLint at 2 µM lookup, one value per entry
- Procedure Details: Metabolic stability in human liver microsomes assessed as intrinsic clearance per mg protein at 2 uM preincubated for 60 mins followed by NADPH addition and measured upto 60 mins by LC-MS analysis
- Type: ADME, Microsome
- Condition Label: time < 120 min, read-out: CLH
# value in µL/min/mg; strip the unit string

# Molecule, Assay Metric, Numeric Result
measured = [
    ("CCCSc1nc2c(c(=O)[nH]1)[C@@H](c1ccc(OC)cc1[N+](=O)[O-])CC(=O)N2", "microsomal CLint at 2 µM", 6.47),
    ("CCCSc1nc2c(c(=O)[nH]1)C(c1ccc(OC)cc1)CC(=O)N2 (racemic)", "microsomal CLint at 2 µM", 5.85),
    ("CCCSc1nc2c(c(=O)[nH]1)[C@@H](c1ccc(OC)cc1)CC(=O)N2", "microsomal CLint at 2 µM", 11.5),
]

Let us examine a further case.
(Q) microsomal CLint at 2 µM lookup needed for CCCSc1nc2c(c(=O)[nH]1)C(c1ccc(OC)cc1[N+](=O)[O-])CC(=O)N2 (racemic) , thanks.
(A) 11.2

* * *

- Procedure Details: AUClast in BALB/c mouse at 30 mg/kg, po measured upto 24 hrs by LC-MS/MS analysis
- Format: ADME, organism-based
- Condition Label: in vivo
Catalogue of compounds with associated AUC(0-t) at 24 h
The reply should be a number in µg·h/mL, with the unit left off.

# Smiles Representation, AUC(0-t) at 24 h / µg·h/mL
data = [
    ("CCCSc1nc2c(c(=O)[nH]1)[C@@H](c1ccc(OC)cc1)CC(=O)N2", 410),
]

Now for the compound whose AUC(0-t) at 24 h we want.
(Q) Using the record for CCCSc1nc2c(c(=O)[nH]1)[C@@H](c1ccc(OC)cc1[N+](=O)[O-])CC(=O)N2 , report its AUC(0-t) at 24 h.
(A) 595

* * *

Catalogue of compounds with associated half-life at 2 µM
- Procedure Details: Metabolic stability in human liver microsomes assessed as half-life at 2 uM preincubated for 60 mins followed by NADPH addition and measured upto 60 mins by LC-MS analysis
- Format: ADME, Microsome
- Condition Label: time < 120 min
Hi, when you answer, please include the unit after the number. Thanks!

# Compound, half-life at 2 µM
records = [
    ("CCCSc1nc2c(c(=O)[nH]1)C(c1ccc(OC)cc1[N+](=O)[O-])CC(=O)N2 (racemic)", "2.07 h"),
]

(Q) Fill in the blank: the reported half-life at 2 µM of CCCSc1nc2c(c(=O)[nH]1)[C@@H](c1ccc(OC)cc1[N+](=O)[O-])CC(=O)N2 is ____.
(A) 3.57 h

(Q) Form field: reported half-life at 2 µM of CCCSc1nc2c(c(=O)[nH]1)C(c1ccc(OC)cc1)CC(=O)N2 (racemic)
(A) 3.95 h

(Q) Give its half-life at 2 µM value. Item: CCCSc1nc2c(c(=O)[nH]1)[C@@H](c1ccc(OC)cc1)CC(=O)N2
(A) 2 h

* * *

- Procedure Details: Metabolic stability in mouse liver microsomes assessed as half-life at 2 uM preincubated for 60 mins followed by NADPH addition and measured upto 60 mins by LC-MS analysis
- Assay type: ADME, Microsome
- Condition Label: time < 120 min
# half-life at 2 µM listing for each entry below
Just the number please, in h, no unit attached.

# Molecule, Unit Annotation, half-life at 2 µM
measured = [
    ("CCCSc1nc2c(c(=O)[nH]1)[C@@H](c1ccc(OC)cc1)CC(=O)N2", "h", 6.16),
    ("CCCSc1nc2c(c(=O)[nH]1)[C@@H](c1ccc(OC)cc1[N+](=O)[O-])CC(=O)N2", "h", 5.72),
    ("CCCSc1nc2c(c(=O)[nH]1)C(c1ccc(OC)cc1[N+](=O)[O-])CC(=O)N2 (racemic)", "h", 1.62),
]

(Q) So what does the record say about half-life at 2 µM for CCCSc1nc2c(c(=O)[nH]1)C(c1ccc(OC)cc1)CC(=O)N2 (racemic) ?
(A) 9.33
